system: SK-MEL-2 melanoma; assay: NCI-60 one-dose screen, 48 h; conditions: 10 µM unless noted
Compounds without any hit were thinned out: in the full panel of roughly 83,000, 20% have a hit. Calls of active or inactive are those of the source. The calls were made as follows: active = growth percent below 10; inactive = the rest.
Outcomes: True for active, False for inactive

compound=Fc1ccc2c(CN3CCO[C@H](COc4cccc(Cl)c4)C3)c[nH]c2c1 category=False
compound=O=C(Nc1ccc(OS(=O)(=O)c2ccc(F)cc2)cc1)C12CC3CC(CC(C3)C1)C2 category=False
compound=COc1cccc2nc(Nc3cccc(NC(=O)c4cc(N5CCOCC5)cc(C(F)(F)F)c4)c3)ccc12 category=False
compound=O=C(OCc1ccc2c(Br)cc(Br)c(O)c2n1)c1cc2ccccc2[nH]1 category=True
compound="CC(CN1CCN(CCOCCO)CC1)CN1c2ccccc2Sc2ccc(Cl)cc21 (configuration not stated)" category=False
compound=Nc1ccc(N(O)/C=C2\C=CC=CC2=O)cc1N category=False
compound="OC(c1cc2c(Cl)cc(Cl)cc2c2cc(C(F)(F)F)ccc12)C1CCCCN1 (configuration not stated)" category=True
compound=COC(=O)c1ccc(NC(N)=NCCC(C)(C)c2ccc(C(F)(F)F)cc2)nc1 category=False
compound="COc1ccc(C(=O)C(C#N)c2cc(OC)c(OC)c(OC)c2)cc1 (configuration not stated)" category=False
compound=C=CCn1c(SCC(=O)Nc2ccc(C(=O)/C=C/c3ccc(Cl)cc3)cc2)nnc1-c1ccc(Cl)cc1 category=False
compound=CCCCOc1ncnc2nc[nH]c12 category=False
compound=C/C(=N\OC(=O)Nc1cccc(Cl)c1)c1ccccc1 category=False
compound=FC(F)(F)C1=NNC(c2ccc3ccccc3c2)=NN1 category=False
compound=Cc1ccc(CSCc2ccc(C(=O)NC3CC3)o2)cc1 category=False
compound=CC1CCN(Cc2ccc(NC(=O)c3cc4ccc5cccnc5c4[nH]3)cc2)CC1 category=False
compound=O=C(Nc1ccc(Br)cc1)Nc1ccccc1Cl category=False
compound=C=CCn1c(SCC(=O)Nc2ccc(C(=O)/C=C/c3ccccc3)cc2)nnc1-c1ccc(OC)c(OC)c1 category=False
compound=Cn1c(=O)c2c3c(oc2c2ccccc21)C(=O)c1ccccc1C3=O category=False
compound=N#Cc1nc(-c2ccc(Cl)cc2)cc(-c2ccc(Nc3nc(N4CCCCC4)nc(N4CCCCC4)n3)cc2)c1N category=False
compound=Nc1nc(N)c2cc(Sc3ccc(Cl)cc3)ccc2n1 category=False
compound=CSC(=S)N/N=C(\C)c1ccccn1 category=False
compound=CC(C)[C@H](CN)NC[C@H](C)NS(=O)(=O)c1ccc(C(C)(C)C)cc1 category=False

====

test system: 786-0 renal; assay: NCI-60 one-dose screen, 48 h; settings: 10 µM unless noted
The panel holds about 83,000 compounds, 20% with a hit somewhere; the sample as a whole holds those more often. The source made the active and inactive calls. Rule for the calls: active = growth percent below 10; inactive = the rest.
Outcomes: t for active, f for inactive

molecule="COC(=O)C(CCC(=O)CCl)N1C(=O)c2ccccc2C1=O (stereo not given)" system_name="786-0 renal" category=f
molecule=O=C1C=CC(=O)N1c1cccc(N2C(=O)C=CC2=O)c1 system_name="786-0 renal" category=f
molecule=CN1CCN(c2ccc(N3Cc4ccccc4OC4=C3C(=O)c3c(O)ccc(O)c3C4=O)cn2)CC1 system_name="786-0 renal" category=t
molecule=CCn1c(CN2CCN(Cc3ccccc3)CC2)nc2cc(NC(=O)c3cccs3)ccc21 system_name="786-0 renal" category=t
molecule="O=C(C(Br)C(Br)c1ccccc1)C(Br)C(Br)c1ccccc1 (stereo not given)" system_name="786-0 renal" category=t

====

test system: PC-3 prostate; experiment: NCI-60 one-dose screen, 48 h (100 = growth as untreated, 0 = no growth, -100 = all killed); conditions: 10 µM unless noted
This is part of a sample that, as a whole, favours compounds with a hit. Of some 83,000 tested, about 20% had one in any assay.
Quick rule for you: growth under 50% gets met, anything else gets not met.

smiles_str=O=C1C=CC(=O)N1c1cccc(N2C(=O)C=CC2=O)c1 category="not met"
smiles_str=O=C(Nc1cccc(Cl)c1)Nc1cc(C(F)(F)F)ccc1Cl category=met
smiles_str=C=CC[C@]1(O)CC[C@H]2[C@@H]3CCc4cc(O)ccc4[C@H]3CC[C@@]21C category="not met"

====

test system: BT-549 breast; assay: NCI-60 one-dose screen, 48 h; details: 10 µM unless noted
About 83,000 compounds went through this panel and 20% of them were active in at least one assay; those are over-represented in the sample as a whole. The source made the active and inactive calls. The calls were made as follows: active = growth percent below 10; inactive = the rest.
Classes used: Y = active, N = inactive

compound="COc1cc(NCCCCC(C)N)c2nccc(C)c2c1 (stereo not drawn)" category=N
compound="CC1CN(CCCOC(=O)Nc2ccc(Cl)cc2)CCN1C(C)(C)C (stereo not drawn)" category=N
compound="COc1cc(NC(C)CCCN)c2ncccc2c1Sc1ccc(Cl)cc1 (stereo not drawn)" category=N
compound=Cc1ccc(N=CNN=C(N)N)cc1 category=N
compound=CCCCCNCCCCCNc1cc(OC)cc2cccnc12 category=N
compound=O=C1/C(=C\c2cccn2Cc2ccc(Cl)cc2)c2ccccc2N1c1c(Cl)cccc1Cl category=N
compound="COc1cc(C2CC(c3cccc(Nc4ccnc5cc(Cl)ccc45)c3)=NN2c2ccccc2)cc(OC)c1OC (stereo not drawn)" category=N
compound="O=C1OCC2=C1C(c1cccc(Br)c1)c1cc3c(cc1N2CCO)OCCO3 (stereo not drawn)" category=N
compound=CCOC(=O)C(Nc1ccccc1)C(=O)OCC category=N
compound=CCc1ccc(Nc2cc(C)c3ccc(O)cc3n2)cc1 category=N
compound=CC(C)COC(=O)NC(C)(C)C category=N
compound=Brc1ccccc1Cn1c(-c2cncs2)nc2ccccc21 category=N
compound=CCOC(=O)c1sc2nc(-c3cc4ccccc4o3)cc(-c3ccc(Cl)cc3)c2c1N category=N
compound="COC1CC(N)C2OC(c3ccccc3)OCC2O1 (stereo not drawn)" category=N
compound=N#Cc1nc(-c2cccc(Br)c2)cc(-c2ccc(Nc3nc(N4CCCCC4)nc(N4CCCCC4)n3)cc2)c1N category=Y
compound=Cc1[nH]nc2ccc3nc(-c4ccc5[nH]ncc5c4)c4c(c3c12)CCCC4 category=N
compound=COc1ccc(-c2cn(-c3cccc(C(=O)/C=C/c4ccc(O)c(OC)c4)c3)c(=O)[nH]2)cc1 category=Y
compound=CCNS(=O)(=O)c1ccc(C)cc1 category=N
compound=CC1(C)CC[C@]2(C(=O)N3CCNCC3)CC[C@]3(C)C(=CC[C@@H]4[C@@]5(C)CCC(=O)C(C)(C)[C@@H]5CC[C@]43C)[C@@H]2C1 category=N
compound="Cc1ccc(S(=O)(=O)NC(CCC(=O)Nc2ccc(Cl)cc2)C(=O)Nc2ccc(Cl)cc2)cc1 (stereo not drawn)" category=N
compound="CNCc1ccccc1CN(CC(=O)Nc1ccc2c(c1)CC1(C2)C(=O)Nc2ncccc21)C(=O)C(C)(C)C (stereo not drawn)" category=N
compound="O=C(Nc1ccccc1)C(CCCCN1C(=O)c2ccccc2C1=O)N1C(=O)c2ccccc2C1=O (stereo not drawn)" category=N
compound=FC(F)(F)c1ccc(/C=N/Nc2nnc3n2N=C(c2ccc(Cl)cc2)CS3)cc1 category=N
compound=CC(C)OC(=O)c1ccc([N+](=O)[O-])cc1 category=N
compound=CC(C)NC(=O)OCC#CCOC(=O)NC(C)C category=N
compound="COc1ccc(C(=O)C(C#N)c2cc(OC)c(OC)c(OC)c2)cc1 (stereo not drawn)" category=N
compound=COc1ccc(-c2nc(-c3cc(OC)cc(OC)c3)[nH]c2-c2ccc(OC)cc2)cc1 category=N
compound=COc1ccc(/C=C/C(=O)c2ccc(NC(=O)CSc3nnc(-c4ccc(Cl)cc4)n3-c3ccccc3)cc2)cc1 category=N
compound=CC(C)c1[nH]ncc1-c1nc2ccc3[nH]ncc3c2c2c1CCCC2 category=N
compound=Nc1nc(N)c2cc(CNc3ccc(Cl)c(Cl)c3)ccc2n1 category=N
compound=Fc1cc(-c2nnc3sc(-c4ccc(Cl)cc4)nn23)c(Cl)cc1Cl category=N
compound=O=C(Nc1cccc(Cl)c1)Nc1cc(C(F)(F)F)ccc1Cl category=N
compound=CN(CCO)c1ccc(N2Cc3ccccc3OC3=C2C(=O)c2c(O)ccc(O)c2C3=O)cn1 category=Y
compound="CCN(CC)CCCC(C)N/C(c1cccc(OC)c1)=c1\\c(=O)[nH]n(-c2c3ccccc3nc3ccccc23)c(=O)\\c1=C(/NC(C)CCCN(CC)CC)c1cccc(OC)c1 (stereo not drawn)" category=Y
compound="COc1ccc(C2=CC(c3ccc(OC)cc3Br)N3C=CSC3=N2)cc1 (stereo not drawn)" category=N
compound="CSCCC1NC(=O)C(C(C)=Nc2ccccc2)=C1O (stereo not drawn)" category=N
compound="CCCN(CCC)CC(O)COc1ccccc1C(=O)Nc1ccccc1 (stereo not drawn)" category=N
compound=NC(N)=N/N=C/c1ccccc1 category=N
compound=FC(F)(F)C1=NNC(c2ccc3ccccc3c2)=NN1 category=N
compound=COc1ccc(/C(=C\c2ccc3c(c2)OCO3)C(=O)Nc2nc3ccccc3s2)cc1 category=N
compound=NC(=Nc1ccccc1)SCCCSC(N)=Nc1ccccc1 category=N
compound=Cc1cc(C#Cc2ccccc2)ccc1-n1c(/C=C/c2ccc(F)cc2)nc2ccccc2c1=O category=N
compound=O=c1[nH]c2ccccc2n2cc3cccnc3c12 category=N

Hello, the source for this data is PubChem BioAssay (NCI), in case you need it.
